Tested on: ACHN
Experiment: Cytotoxicity against human ACHN cells assessed as growth inhibition after 48 hrs by sulforhodamine B assay
Assay type: functional
# LC50 per entry
Number only, in µM; omit the unit.

COc1ccc(-c2cc(/C=C/C(=O)c3ccc(N)cc3)[nH]n2)cc1OC :: 6.48

[ask] Give the value of LC50 reported for the following: COc1cc(-c2cc(/C=C/C(=O)c3ccc4c(c3)OCO4)[nH]n2)cc(OC)c1OC
[reply] 7.32

[ask] Give the value of LC50 reported for the following: COc1ccc(C(=O)/C=C/c2cc(-c3cc(OC)c(OC)c(OC)c3)n[nH]2)cc1
[reply] 6.71

---

Test system: CCRF-CEM
Assay: Cytotoxicity against human CCRF-CEM cells assessed as cell growth at 0.1 uM after 48 hrs by sulforhodamine B assay relative to control
Type: functional
Conditions: read-out: Activity
# growth at 0.1 µM per entry
Number only, in %; omit the unit.

Here is how some compounds turned out for growth at 0.1 µM.
COc1cc(-c2cc(/C=C/C(=O)c3ccc(F)c(F)c3)[nH]n2)cc(OC)c1OC :: 96
COc1ccc(C(=O)/C=C/c2cc(-c3cc(OC)c(OC)c(OC)c3)n[nH]2)cc1OC :: 94
COc1ccc(C(=O)/C=C/c2cc(-c3cc(OC)c(OC)c(OC)c3)n[nH]2)cc1 :: 98

Switching to the query record.
[ask] Give the value of growth at 0.1 µM reported for the following: COc1cc(C(=O)/C=C/c2cc(-c3ccc4c(c3)OCO4)n[nH]2)cc(OC)c1OC
[reply] 98

---

Tested on: SF-295
Experiment: Cytotoxicity against human SF295 cells assessed as growth inhibition after 48 hrs by sulforhodamine B assay
Assay type: functional
Settings: SF-295, 48 h
# TGI per entry
Number only, in µM; omit the unit.

COc1ccc(C(=O)/C=C/c2cc(-c3ccc(OC)c(OC)c3)n[nH]2)cc1OC :: 5.05
COc1ccc(C(=O)/C=C/c2cc(-c3ccc4c(c3)OCO4)n[nH]2)cc1OC :: 6.15
COc1cc(-c2cc(/C=C/C(=O)c3ccc(N)cc3)[nH]n2)cc(OC)c1OC :: 10.9

Switching to the query record.
[ask] Give the value of TGI reported for the following: COc1ccc(-c2cc(/C=C/C(=O)c3ccc(OC)c(OC)c3)[nH]n2)cc1
[reply] 5.37

---

Test system: MDA-MB-231
Test: Cytotoxicity against human MDA-MB-231 cells assessed as cell growth at 0.01 uM after 48 hrs by sulforhodamine B assay relative to control
Assay type: functional
Conditions: MDA-MB-231, 48 h, read-out: Activity
# growth at 0.01 µM per entry
Number only, in %; omit the unit.

COc1ccc(-c2cc(/C=C/C(=O)c3ccc(N)cc3)[nH]n2)cc1OC :: 113

[ask] Give the value of growth at 0.01 µM reported for the following: COc1ccc(-c2cc(/C=C/C(=O)c3cc(OC)c(OC)c(OC)c3)[nH]n2)cc1OC
[reply] 98

[ask] Give the value of growth at 0.01 µM reported for the following: COc1cc(-c2cc(/C=C/C(=O)c3ccc(N)cc3)[nH]n2)cc(OC)c1OC
[reply] 109

[ask] Give the value of growth at 0.01 µM reported for the following: COc1cc(C(=O)/C=C/c2cc(-c3ccc4c(c3)OCO4)n[nH]2)cc(OC)c1OC
[reply] 100

---

Test system: T47D
Test: Cytotoxicity against human T47D cells assessed as growth inhibition after 48 hrs by sulforhodamine B assay
Format: functional
Mark 1 for TGI under 4 µM, -1 if at or over.

Example cases with answers are listed next.
COc1ccc(C(=O)/C=C/c2cc(-c3cc(OC)c(OC)c(OC)c3)n[nH]2)cc1OC :: -1
COc1ccc(-c2cc(/C=C/C(=O)c3ccc(N)cc3)[nH]n2)cc1 :: -1
COc1cc2c(cc1OC)C(=O)/C(=C/c1cc(-c3ccc4c(c3)OCO4)n[nH]1)C2 :: 1
COc1ccc(C(=O)/C=C/c2cc(-c3ccc(OC)c(OC)c3)n[nH]2)cc1OC :: -1

[ask] Consider the compound COc1cc(-c2cc(/C=C/C(=O)c3ccc(N)cc3)[nH]n2)cc(OC)c1OC . Is its TGI strictly less than 4 µM?
[reply] -1

---

System: 786-0
Assay: Cytotoxicity against human 786-0 cells assessed as cell growth at 0.01 uM after 48 hrs by sulforhodamine B assay relative to control
Assay type: functional
Conditions: 786-0, 48 h, read-out: Activity
# growth at 0.01 µM per entry
Just the number plus its unit, please.

Here is how some compounds turned out for growth at 0.01 µM.
COc1ccc(-c2cc(/C=C/C(=O)c3ccc(OC)c(OC)c3)[nH]n2)cc1 :: 100%
COc1cc(-c2cc(/C=C/C(=O)c3ccc(N)cc3)[nH]n2)cc(OC)c1OC :: 92%

[ask] Give the value of growth at 0.01 µM reported for the following: COc1ccc(-c2cc(/C=C/C(=O)c3ccc(N)cc3)[nH]n2)cc1OC
[reply] 91%

[ask] Give the value of growth at 0.01 µM reported for the following: COc1ccc(C(=O)/C=C/c2cc(-c3ccc(OC)c(OC)c3)n[nH]2)cc1OC
[reply] 92%

---

Test system: IGROV-1
Assay: Cytotoxicity against human IGROV1 cells assessed as cell growth at 1 uM after 48 hrs by sulforhodamine B assay relative to control
Type: functional
Settings: IGROV-1, 48 h, read-out: Activity
# growth at 1 µM per entry
Number only, in %; omit the unit.

Here is how some compounds turned out for growth at 1 µM.
COc1ccc(C(=O)/C=C/c2cc(-c3ccc(OC)c(OC)c3)n[nH]2)cc1OC :: 94
COc1cc2c(cc1OC)C(=O)/C(=C/c1cc(-c3ccc4c(c3)OCO4)n[nH]1)C2 :: 86
COc1ccc(C(=O)/C=C/c2cc(-c3cc(OC)c(OC)c(OC)c3)n[nH]2)cc1 :: 101

[ask] Give the value of growth at 1 µM reported for the following: COc1cc(C(=O)/C=C/c2cc(-c3cc(OC)c(OC)c(OC)c3)n[nH]2)cc(OC)c1OC
[reply] 99

---

Test system: NCI-H460
Experiment: Cytotoxicity against human NCI-H460 cells assessed as cell growth at 1 uM after 48 hrs by sulforhodamine B assay relative to control
Format: functional
Conditions: NCI-H460, 48 h, read-out: Activity
Mark 1.0 for growth at 1 µM under 90%, 0.0 if at or over.

COc1ccc(C(=O)/C=C/c2cc(-c3cc(OC)c(OC)c(OC)c3)n[nH]2)cc1 :: 1.0
COc1cc(-c2cc(/C=C/C(=O)c3ccc(F)c(F)c3)[nH]n2)cc(OC)c1OC :: 0.0
COc1ccc(-c2cc(/C=C/C(=O)c3cc(OC)c(OC)c(OC)c3)[nH]n2)cc1OC :: 1.0

Now take the following compound into account.
[ask] Consider the compound COc1cc(-c2cc(/C=C/C(=O)c3ccc4c(c3)OCO4)[nH]n2)cc(OC)c1OC . Is its growth at 1 µM strictly less than 90%?
[reply] 0.0

---

# growth at 0.1 µM per entry
System: SK-OV-3
Test: Cytotoxicity against human SKOV3 cells assessed as cell growth at 0.1 uM after 48 hrs by sulforhodamine B assay relative to control
Format: functional
Details: SK-OV-3, 48 h, read-out: Activity
Number only, in %; omit the unit.

COc1ccc(-c2cc(/C=C/C(=O)c3ccc(OC)c(OC)c3)[nH]n2)cc1 :: 109
COc1cc(-c2cc(/C=C/C(=O)c3ccc(Cl)c(Cl)c3)[nH]n2)cc(OC)c1OC :: 104

[ask] Give the value of growth at 0.1 µM reported for the following: COc1ccc(-c2cc(/C=C/C(=O)c3ccc(N)cc3)[nH]n2)cc1
[reply] 103

[ask] Give the value of growth at 0.1 µM reported for the following: COc1cc2c(cc1OC)C(=O)/C(=C/c1cc(-c3ccc4c(c3)OCO4)n[nH]1)C2
[reply] 105

[ask] Give the value of growth at 0.1 µM reported for the following: COc1cc(C(=O)/C=C/c2cc(-c3ccc4c(c3)OCO4)n[nH]2)cc(OC)c1OC
[reply] 105

---

Tested on: SF-295
Assay: Cytotoxicity against human SF295 cells assessed as cell growth at 1 uM after 48 hrs by sulforhodamine B assay relative to control
Type: functional
Conditions: SF-295, 48 h, read-out: Activity
Please mark fulfilled if the recorded growth at 1 µM is equal to or greater than 80%, and not fulfilled if it falls below.

[ask] growth at 1 µM >= 80% for COc1ccc(-c2cc(/C=C/C(=O)c3ccc(N)cc3)[nH]n2)cc1OC ?
[reply] fulfilled

[ask] growth at 1 µM >= 80% for COc1ccc(-c2cc(/C=C/C(=O)c3cc(OC)c(OC)c(OC)c3)[nH]n2)cc1OC ?
[reply] not fulfilled

[ask] growth at 1 µM >= 80% for COc1cc(C(=O)/C=C/c2cc(-c3ccc4c(c3)OCO4)n[nH]2)cc(OC)c1OC ?
[reply] fulfilled

[ask] growth at 1 µM >= 80% for COc1ccc(C(=O)/C=C/c2cc(-c3ccc(OC)c(OC)c3)n[nH]2)cc1OC ?
[reply] not fulfilled
